Origin of the recorded values: paper PMC11672294

Test system: HT29
assay context: 72 h, relative to DMSO; 10 µM
Where a name gives a salt, the structure may show the parent alone.
endpoint name: Relative cell viability (%) (%)
Numbers only, in %.

CC(=O)Nc1cccc(-n2c(=O)n(C3CC3)c(=O)c3c(Nc4ccc(I)cc4F)n(C)c(=O)c(C)c32)c1 [Trametinib (GSK1120212)] = 35.92

Please give Relative cell viability (%) for each item listed below.
1. c1ccc(-c2ccc(C(c3ccccc3)n3ccnc3)cc2)cc1 (stereo not shown) [Bifonazole]
2. O=C1CC2(CCCC2)CC(=O)N1CCCCN1CCN(c2ncccn2)CC1 [Buspirone HCl]
3. CC(C)(C)C(=O)C(Oc1ccc(Cl)cc1)n1ccnc1 (stereo not shown) [Climbazole]

1: 88.14; 2: 73.94; 3: 83.94

----------
Test system: HT29
assay context: 72 h, relative to DMSO; 10 µM
Where a name gives a salt, the structure may show the parent alone.
Categories are assigned from the measured Relative cell viability (%) using these intervals: bottom end = under 60%, midrange = from 60% up to 80%, top end = 80% and over

Answered cases to consult:
CN(C)CCC=C1c2ccccc2C=Cc2ccccc21 [Cyclobenzaprine HCl] = bottom end
NNC(=O)c1ccncc1 = top end
CC(C[N+](C)(C)C)OC(N)=O (stereo not shown) [Bethanechol chloride] = top end
C[C@@H]1CN(c2c(F)c(N)c3c(=O)c(C(=O)O)cn(C4CC4)c3c2F)C[C@H](C)N1 = midrange

Textbook exercise: identify the category of the molecule given here, Oc1c(Cl)cc(Cl)c2cccnc12 , according to its measured value.
midrange

Just checking, what class would you give CN(C)c1nc(N(C)C)nc(N(C)C)n1 here?
bottom end

Class (by measured Relative cell viability (%)) for Nc1nc(N)nc(NC2CC2)n1
midrange

Given Cc1ccccc1C(=O)Nc1ccc(C(=O)N2CCCC(O)c3cc(Cl)ccc32)c(C)c1 (stereo not shown) , name the class its Relative cell viability (%) places it in.
bottom end

----------
Tested on: HT29
assay context: 72 h, relative to DMSO; 10 µM
endpoint name: Relative cell viability (%) (%)
Give bare numbers, in %.

// below: answered compounds
Cn1c(COP(=O)(NCCBr)NCCBr)cnc1[N+](=O)[O-] = 83.98
O=C(O)c1cc(=O)[nH]c(=O)[nH]1 = 101.4
CC[C@@H]1C(=O)N(C)c2cnc(Nc3ccc(C(=O)N[C@H]4CC[C@H](N5CCN(CC6CC6)CC5)CC4)cc3OC)nc2N1C(C)C = 88.41
O=C1NC(=O)[C@@H](c2cn3c4c(cccc24)CCC3)[C@@H]1c1c[nH]c2ccccc12 [Tivantinib (ARQ 197)] = 27.18
CC1(C)S[C@@H]2[C@H](NC(=O)[C@H](NC(=O)N3CCN(S(C)(=O)=O)C3=O)c3ccccc3)C(=O)N2[C@H]1C(=O)O [Mezlocillin Sodium] = 90.303
CCOC(=O)[C@@H](N)Cc1ccc(-c2cc(O[C@H](c3ccc(Cl)cc3-n3ccc(C)n3)C(F)(F)F)nc(N)n2)cc1 [Telotristat Etiprate (LX 1606 Hippurate)] = 86.05

# input compound: CC(C)(CO)[C@@H](O)C(=O)NCCCO ; wanted: its Relative cell viability (%)
121.4

----------
Tested on: HT29
assay context: 72 h, relative to DMSO; 10 µM
Structures can show the parent of a compound that is named as a salt.
For each of the compounds below, state its Relative cell viability (%).
Give bare numbers, in %.

# annotated cases, reported Relative cell viability (%) shown
NCCc1c[nH]c2ccc(O)cc12 [Serotonin HCl] = 86.67
CCCCCCCCCCCCCCCC[n+]1ccccc1 [Cetylpyridinium Chloride] = 5.758
NC(=O)c1cccnc1 [Nicotinamide (Vitamin B3)] = 113.7

Okay, here is my list. What is Relative cell viability (%) for each of these?
1. Sc1ncnc2nc[nH]c12 [Mercaptopurine (6-MP)]
2. CC[C@@H]1/C=C(\C)C[C@H](C)C[C@H](OC)[C@H]2O[C@@](O)(C(=O)C(=O)N3CCCC[C@H]3C(=O)O[C@H](/C(C)=C/[C@@H]3CC[C@H](Cl)[C@H](OC)C3)[C@H](C)[C@@H](O)CC1=O)[C@H](C)C[C@@H]2OC [Pimecrolimus]
3. Nc1nccs1 [Aminothiazole]
4. O=C(CCCN1CCN(c2ccccn2)CC1)c1ccc(F)cc1 [Azaperone]
5. CC(=O)O[C@@]12CO[C@@H]1C[C@H](O)[C@@]1(C)C(=O)[C@H](O)C3=C(C)[C@@H](OC(=O)[C@H](O)[C@@H](NC(=O)OC(C)(C)C)c4ccccc4)C[C@@](O)([C@@H](OC(=O)c4ccccc4)[C@H]21)C3(C)C [Docetaxel Trihydrate]
6. NC(=O)N1CCC(CC(=O)N2CCC([C@H]3c4ncc(Br)cc4CCc4cc(Cl)cc(Br)c43)CC2)CC1 [Lonafarnib]
7. CCOc1ccc2nc3cc(N)ccc3c(N)c2c1 [Ethacridine lactate monohydrate]

1. 52.49
2. 64.96
3. 93.03
4. 93.03
5. 23.93
6. 95.63
7. 39.39

Report Relative cell viability (%) for every entry below.
1. CCn1cc(C(=O)O)c(=O)c2ccc(C)nc21 [Nalidixic acid]
2. COc1ccc(C[C@@H](C)NC[C@H](O)c2ccc(O)c(NC=O)c2)cc1 (racemic) [Formoterol Hemifumarate]

106.7
95.63
